recombinant UMI read abundance (log10) listing for selected sequences.
experiment: recombinant UMI read abundance after kanamycin selection (control-corrected) (log10(CPM+1)); higher = more efficient recombination; extreme values may be limits of the assay; sequences stand for … in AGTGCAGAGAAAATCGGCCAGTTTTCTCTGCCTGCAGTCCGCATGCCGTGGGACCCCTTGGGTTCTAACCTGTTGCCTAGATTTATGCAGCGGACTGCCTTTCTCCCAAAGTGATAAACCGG…AGGTTGGTTTCACT; site = the 11-nt donor;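 note: IS621 bridge recombinase in Escherichia coli cells against a fixed T5 target plasmid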
measured.property: recombinant UMI read abundance (log10)

# biopolymer.sequence, numeric.result
data = [
    ("ACGCGCCCATGGACCGGTTTTCCCGGTAATCCGTATTTGGT (site ACGCGCCCTAC)", 0.771),
    ("ATTGTTGCATGGACCGGTTTTCCCGGTAATCCGTATTTGAC (site ATTGTTGCTGT)", 2.18),
    ("TGCCGTACATGGACCGGTTTTCCCGGTAATCCGTATTTGCT (site TGCCGTACTAG)", 1.25),
    ("TGAACACCATGGACCGGTTTTCCCGGTAATCCGTATTTGAC (site TGAACACCTGT)", 0),
    ("GCTAGAACATGGACCGGTTTTCCCGGTAATCCGTATTTGGC (site GATAGAACTGC)", 0),
]
